Data provenance: paper PMC11253624

protocol.text: Mammalian cell cytotoxicity (CC50)
Type: cell-based
reported.conditions: human, HeLa cells (ATCC CCL-2)
quantity: CC50

input: If you can, please state the reported CC50 value of O=C(c1ccsc1)N1CCC(Cc2ccc(COc3ccncc3)cc2)CC1 [MBX-7591] .
output: > 100 µM

---

protocol.text: Caco-2 permeability
Assay type: in vitro ADME
reported.conditions: human
quantity: efflux ratio

input: If you can, please state the reported efflux ratio value of `O=C(c1ccsc1)N1CCC(Cc2ccc(COc3ccncc3)cc2)CC1` .
output: 0.49

---

protocol.text: Aqueous solubility (nephelometric)
Type: physicochemical
reported.conditions: kinetic from dmso stock
quantity: solubility (µM)
Value expressed in µM; do not type the unit.

input: If you can, please state the reported solubility value of `O=C(c1ccsc1)N1CCC(Cc2ccc(COc3ccncc3)cc2)CC1` .
output: 50

---

protocol.text: Caco-2 permeability
Assay type: in vitro ADME
reported.conditions: human, A→B, method b66 gives Papp in cm/s
quantity: Papp A→B

input: If you can, please state the reported Papp A→B value of `O=C(c1ccsc1)N1CCC(Cc2ccc(COc3ccncc3)cc2)CC1` .
output: 11 ×10⁻⁶ cm/s

---

protocol.text: Liver microsome stability
Assay type: in vitro ADME
reported.conditions: mouse; murine liver microsomes, NADPH; read-out: MLMS (t1/2)
quantity: half-life (min)
Value expressed in min; do not type the unit.

input: If you can, please state the reported half-life value of `O=C(c1ccsc1)N1CCC(Cc2ccc(COc3ccncc3)cc2)CC1` .
output: 40

---

Test system: HeLa cells (ATCC CCL-2)
protocol.text: Mammalian cell cytotoxicity (CC50)
Format: cell-based
quantity: CC50

input: If you can, please state the reported CC50 value of `O=C(c1ccsc1)N1CCC(Cc2ccc(COc3ccncc3)cc2)CC1` .
output: ≥ 100 µM

---

target.entity: CYP3A4 (Homo sapiens)
Construct: purchased BD Gentest Corp, Woburn, MA, USA
Sequence (P08684 whole entry): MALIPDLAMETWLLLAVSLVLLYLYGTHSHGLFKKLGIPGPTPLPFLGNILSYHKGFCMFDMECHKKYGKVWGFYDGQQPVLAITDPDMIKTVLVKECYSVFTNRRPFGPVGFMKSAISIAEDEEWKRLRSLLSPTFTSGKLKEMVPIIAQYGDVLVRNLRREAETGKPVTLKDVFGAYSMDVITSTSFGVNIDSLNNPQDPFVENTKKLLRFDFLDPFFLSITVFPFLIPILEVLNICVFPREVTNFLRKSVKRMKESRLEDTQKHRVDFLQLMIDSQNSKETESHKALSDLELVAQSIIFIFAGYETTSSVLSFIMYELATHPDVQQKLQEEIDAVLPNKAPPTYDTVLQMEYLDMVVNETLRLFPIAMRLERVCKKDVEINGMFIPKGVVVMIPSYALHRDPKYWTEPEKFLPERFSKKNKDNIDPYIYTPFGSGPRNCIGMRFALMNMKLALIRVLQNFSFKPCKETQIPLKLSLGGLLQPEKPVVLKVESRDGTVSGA
protocol.text: CYP450 inhibition
Assay type: in vitro ADME
reported.conditions: Human Cytochrome P450 kit (BD Gentest), read-out: Human CYP3A4 inhibition (%INH at 10 µM)
quantity: inhibition at 10 µM (%)
Value expressed in %; do not type the unit.

input: If you can, please state the reported inhibition at 10 µM value of `O=C(c1ccsc1)N1CCC(Cc2ccc(COc3ccncc3)cc2)CC1` .
output: 89
